Test system: MILI (PIWIL2) piRISC loaded with Kctd7 piRNA (26 nt);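 note: 1 nM active piRISC with 0.1 nM target library at 33 °C single turnover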
experiment: pre-steady-state target cleavage rate (min^-1); MIWI and MILI are mouse PIWI proteins and EfPiwi is from a freshwater sponge; tags in brackets are library labels; higher = faster piRNA-guided slicing of the target;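 note: 1 nM active piRISC with 0.1 nM target library at 33 °C single turnover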
condition.notes: guide: Kctd7 piRNA 5'p-UGUUAAUCUCUCAGAGAAGGUGACAG; auxiliary factor: 500 nM mouse GTSF1
In all, about 3,700 sequences were measured (“pre-steady-state target cleavage rate”: median about 0.02, highest 2% from about 0.23 on). The sample holds the highest values, similar sequences and a random draw of the others, so the mix is not that of the screen.
Records here are stratified by pre-steady-state target cleavage rate; strata: low group: < 0.08; middle group: ≥ 0.08 and < 0.2; high group: ≥ 0.2

>  <sequence.content>
UAGUGUGUCACCUUCUCUGAGAGAUUACA

>  <answer.label>
middle group

$$$$
>  <sequence.content>
UAGUGAGUCACCUUCUUGAGAGAUUAACA

>  <answer.label>
low group

$$$$
>  <sequence.content>
UAGUGUGUCACCUUCUUUGAGAGAUUAACA

>  <answer.label>
high group

$$$$
>  <sequence.content>
UAGUGUGUCACCUUCCCUGAGAGAUUAACA

>  <answer.label>
high group

$$$$
>  <sequence.content>
UAGUCUGUCACCUUCUCUCAGAGAUUAACA

>  <answer.label>
low group

$$$$
>  <sequence.content>
UAGUGAGUCACCUUCUCUGAGAGUUUAUCA

>  <answer.label>
middle group

$$$$
>  <sequence.content>
UAGUCUGUCACCUUCUUCUGAGAGAUUAACA

>  <answer.label>
middle group

$$$$
>  <sequence.content>
UAGUGACUCACCUUCUCUGAGAGUUUUACA

>  <answer.label>
low group

$$$$
>  <sequence.content>
UAGUGACAGUGCUUCUCUGAGAAAUUAACA

>  <answer.label>
low group

$$$$
>  <sequence.content>
UAGUGACACAGGUUCUCUGAGAGAUUAAGA

>  <answer.label>
low group

$$$$
>  <sequence.content>
UAGUCUGUCUCCUUCUCUGAGAGAUUAUGA

>  <answer.label>
low group

$$$$
>  <sequence.content>
UAGUGACAGUCCUUCUCUGAGAGUAAUUGA [g8:g20:cont:t1A]

>  <answer.label>
low group

$$$$
>  <sequence.content>
UAGUGUGUCACCUUGCUCUGAGAGAUUAACA

>  <answer.label>
high group

$$$$
>  <sequence.content>
UAGUGAGUCACCUUCUCUGAGAGAUUAACC [g2:g24:cont:t1C]

>  <answer.label>
middle group

$$$$
>  <sequence.content>
UAGUGAGUCACCUUCUCUGAGAAAUUAACA

>  <answer.label>
middle group

$$$$
>  <sequence.content>
UAGUGACACACGAUCUCUGAGAGAUUAACA

>  <answer.label>
low group

$$$$
>  <sequence.content>
UAGUGACAGUCCGUCUCUGAGAGAUUAACA

>  <answer.label>
low group

$$$$
>  <sequence.content>
UAGUGAGUCACCUUCUCUGAGAGACUUAACA

>  <answer.label>
middle group

$$$$
>  <sequence.content>
UAGUGAGUCACCUUCUUUGAGAGAUUAACA

>  <answer.label>
high group

$$$$
>  <sequence.content>
UAGUGUGUCACCUUCUCUGAGAGAUUUAACA

>  <answer.label>
high group

$$$$
>  <sequence.content>
UAGUGUGUCACCUUCUCUGAGAGAUAACA

>  <answer.label>
low group

$$$$
>  <sequence.content>
UAGUGUGUCACCUUCUCUGAGAGUUUAUGA

>  <answer.label>
low group

$$$$
>  <sequence.content>
UAGUGUGUCACCUGCUCUGAGAGAUUAACA

>  <answer.label>
middle group

$$$$
>  <sequence.content>
UAGUGACAGUGGAAGAGUGACAGAUUAACA

>  <answer.label>
low group

$$$$
>  <sequence.content>
UAGUGAGUCACCUUGCUCUGAGAGAUUAACA

>  <answer.label>
high group

$$$$
>  <sequence.content>
UAGUGUGUCACCUUCUCUCUGAGAUUAACA

>  <answer.label>
low group

$$$$
>  <sequence.content>
UAGUCUGUCACCUACUCUGAGAGAAUAACA

>  <answer.label>
middle group

$$$$
>  <sequence.content>
UAGUGAGUCACCUUCUCUGAGAGAUUAAUCA

>  <answer.label>
high group

$$$$
>  <sequence.content>
UAGUGUGUCACCUUCUCUGAGAGAUUAACA [g2:g25:cont:t1A]

>  <answer.label>
high group

$$$$
>  <sequence.content>
UAGUCUGUCACCAUCUCUGAGAGAUUUACA

>  <answer.label>
middle group

$$$$
>  <sequence.content>
UAGUGAGUCACCUUCUCUGAGAGAUUAAUA

>  <answer.label>
high group

$$$$
>  <sequence.content>
UAGUCUGUCACCUUCUCUGAGAGAUUUUGA

>  <answer.label>
low group

$$$$
>  <sequence.content>
UAGUGAGUCACCUUCUCUGAGAGUUAAACA

>  <answer.label>
high group

$$$$
>  <sequence.content>
UAGUGUGUCACCUUCUCUGAGAGAUUGAACA

>  <answer.label>
middle group

$$$$
>  <sequence.content>
UAGUCUGUCACCUUCUUUGAGAGAUUAACA

>  <answer.label>
high group

$$$$
>  <sequence.content>
UAGUGUGUCACCUUCUCUGAGAGAUUCACA

>  <answer.label>
high group

$$$$
>  <sequence.content>
UAGUGAGUCACCUUCUCUGAGAGAUUAACU [g2:g24:cont:t1U]

>  <answer.label>
high group

$$$$
>  <sequence.content>
UAGUGACAGACCUUCUCUGUGAGAUAAACA

>  <answer.label>
low group

$$$$
>  <sequence.content>
UAGUGUGUCACCUUCUCUGAGAGAUGUAACA

>  <answer.label>
middle group

$$$$
>  <sequence.content>
UAGUCUGUCACCUUCUCUAAGAGAUUAACA

>  <answer.label>
middle group

$$$$
>  <sequence.content>
UAGUGAGUCACCUUCUCUGAGAGUUUAUGA

>  <answer.label>
high group

$$$$
>  <sequence.content>
UAGUGACUCACCUUCAGUGAGAGAUUAACA

>  <answer.label>
low group

$$$$
>  <sequence.content>
UAGUGUGUCACCUUCUCUGAGAGAUUUACA

>  <answer.label>
high group

$$$$
>  <sequence.content>
UAGUGACAGUCCUUCUCUGAUGAGAUUAACA

>  <answer.label>
low group

$$$$
>  <sequence.content>
UAGUGAGUCACCUUCUCUGAGAGAUCUAACA

>  <answer.label>
middle group

$$$$
>  <sequence.content>
UAGUGAGUGACCUUCUCUGAGACAUUAACA

>  <answer.label>
low group

$$$$
>  <sequence.content>
UAGUGAGUCACCUUCUCUGAGAGAUGUAACA

>  <answer.label>
high group

$$$$
>  <sequence.content>
UAGUCUGUCACCUUCUCUGAGAGAUCUAACA

>  <answer.label>
high group

$$$$

Origin of values: the supplement of paper PMC10338343
